# System: IGROV-1
# METHOD: SRB colorimetric assay of cell growth and viability, IGROV-1
# Type: cell-based, human
# RUN CONDITIONS: 48 hours exposure
Where a SMILES comes first, the peptide text is derived from it. Bridges are numbered along the chain shown (N, C = ends). [ ]: non-standard residue; d: D form. The star is where a group is joined. d(aIle) = CC[C@H](C)[C@@H](N)C(=O)O; d(aThr) = C[C@@H](O)[C@@H](N)C(=O)O; Hexanoyl(5-Me) = CC(C)CCCC(=O)*; Orn = NCCC[C@H](N)C(=O)O; Dhb = C/C=C(\N)C(=O)O
Attribute: LC50 (concentration causing 50% net cell killing)
Numbers only; they are read as µM.

Illustrative cases are given below, each with its answer.
C/C=C1\NC(=O)[C@H](Cc2ccccc2)NC(=O)[C@@H](C(C)C)NC(=O)[C@@H](C(C)CC)NC(=O)[C@H](NC(=O)[C@H](NC(=O)[C@H](CCCN)NC(=O)[C@H]2CCCN2C(=O)[C@H](NC(=O)[C@@H](NC(=O)[C@@H](NC(=O)[C@H](NC(=O)CCC(C)CC)C(C)C)C(C)O)C(C)C)C(C)C)C(C)CC)C(C)OC(=O)[C@H](C(C)C)NC1=O (stereo partly drawn) | 0.641
C/C=C1\NC(=O)[C@H](Cc2ccccc2)NC(=O)[C@@H](C(C)C)NC(=O)[C@@H]([C@@H](C)CC)NC(=O)[C@H](NC(=O)[C@H](NC(=O)[C@H](CCCN)NC(=O)[C@H]2CCCN2C(=O)[C@H](NC(=O)[C@H](CCCN)NC(=O)[C@@H](NC(=O)[C@H](NC(=O)CCCC(C)C)C(C)C)[C@@H](C)O)C(C)C)[C@@H](C)CC)[C@@H](C)OC(=O)[C@H](C(C)C)NC1=O [Compound 49, [Orn^11]-KF] ({Hexanoyl(5-Me)}-[dV]T[Orn][dV][dP][Orn][d(aIle)][d(aThr)][d(aIle)][dV]F[Dhb]V; ester 8-C) | 5.97
C/C=C1\NC(=O)[C@H](Cc2ccccc2)NC(=O)[C@@H](C(C)C)NC(=O)[C@@H]([C@@H](C)CC)NC(=O)[C@H](NC(=O)[C@H](NC(=O)[C@H](CCCN)NC(=O)[C@H]2CCCN2C(=O)[C@H](NC(=O)[C@@H](NC(=O)[C@@H](NC(=O)[C@H](NC(=O)c2ccc(C(F)(F)F)cc2)C(C)C)[C@@H](C)O)C(C)C)C(C)C)[C@@H](C)CC)[C@@H](C)OC(=O)[C@H](C(C)C)NC1=O [Compound 21, [p-CF3Bza^14]-KF] | 3.45

### Prompt Using the record for C/C=C1\NC(=O)[C@H](Cc2ccccc2)NC(=O)[C@@H](C(C)C)NC(=O)[C@@H]([C@@H](C)CC)NC(=O)[C@H](NC(=O)[C@H](NC(=O)[C@H](CCCN)NC(=O)[C@H]2CCCN2C(=O)[C@H](NC(=O)[C@@H](NC(=O)[C@@H](NC(=O)[C@@H](Cc2ccccc2)NC(=O)CCCC(C)C)[C@@H](C)O)C(C)C)C(C)C)[C@@H](C)CC)[C@@H](C)OC(=O)[C@H](C(C)C)NC1=O [Compound 36, [D-Phe^13]-KF] , report its LC50 (concentration causing 50% net cell killing).
### Response 2.5

### Prompt Ok, now C/C=C1\NC(=O)[C@H](Cc2ccccc2)NC(=O)[C@@H](C(C)C)NC(=O)[C@@H]([C@@H](C)CC)NC(=O)[C@H](NC(=O)[C@H](NC(=O)[C@H](CCCN)NC(=O)[C@H]2CCCN2C(=O)[C@H](NC(=O)[C@@H](NC(=O)[C@@H](NC(=O)[C@H](NC(=O)Cc2ccc(C(F)(F)F)cc2)C(C)C)[C@@H](C)O)C(C)C)C(C)C)[C@@H](C)CC)[C@@H](C)OC(=O)[C@H](C(C)C)NC1=O [Compound 25, [p-CF3PhAc^14]-KF]
### Response 1.96

### Prompt Ok, now C/C=C1\NC(=O)[C@H](Cc2ccccc2)NC(=O)[C@@H](C(C)C)NC(=O)[C@@H]([C@@H](C)CC)NC(=O)[C@H](NC(=O)[C@H](NC(=O)[C@H](CCCN)NC(=O)[C@H]2CCCN2C(=O)[C@H](NC(=O)[C@@H](NC(=O)[C@H](C)NC(=O)CCCC(C)C)C(C)C)C(C)C)[C@@H](C)CC)[C@@H](C)OC(=O)[C@H](C(C)C)NC1=O [Compound 52, [Ala^12, noD-Val^13]-KF] ({Hexanoyl(5-Me)}-AV[dV][dP][Orn][d(aIle)][d(aThr)][d(aIle)][dV]F[Dhb]V; ester 7-C)
### Response 7.41

### Prompt Ok, now C/C=C1\NC(=O)[C@H](Cc2ccccc2)NC(=O)[C@@H](C(C)C)NC(=O)[C@@H]([C@@H](C)CC)NC(=O)[C@H](NC(=O)[C@H](NC(=O)[C@H](CCCN)NC(=O)[C@H]2CCCN2C(=O)[C@H](NC(=O)[C@@H](NC(=O)[C@@H](NC(=O)[C@H]2CCCN2C(=O)CCCC(C)C)[C@@H](C)O)C(C)C)C(C)C)[C@@H](C)CC)[C@@H](C)OC(=O)[C@H](C(C)C)NC1=O [Compound 37, [D-Pro^13]-KF]
### Response 2.55

### Prompt Ok, now C/C=C1\NC(=O)[C@H](Cc2ccccc2)NC(=O)[C@@H](C(C)C)NC(=O)[C@@H]([C@@H](C)CC)NC(=O)[C@H](NC(=O)[C@H](NC(=O)[C@H](CCC(=O)O)NC(=O)[C@H]2CCCN2C(=O)[C@H](NC(=O)[C@@H](NC(=O)[C@@H](NC(=O)[C@H](NC(=O)CCCC(C)C)C(C)C)[C@@H](C)O)C(C)C)C(C)C)[C@@H](C)CC)[C@@H](C)OC(=O)[C@H](C(C)C)NC1=O [Compound 4, [Glu^8]-KF] ({Hexanoyl(5-Me)}-[dV]TV[dV][dP]E[d(aIle)][d(aThr)][d(aIle)][dV]F[Dhb]V; ester 8-C)
### Response 3.31
